system: VERPE; assay: Post-emergence herbicidal action against VERPE; assay type: in vivo, Veronica persica; settings: 320 g/ha, visual rating about 3 weeks after treatment
Observation type: Post-emergence action against VERPE in % (%)
Report as a plain number; the unit % is understood.

Please review the following examples before continuing.
C=CCNC(=O)COc1nn(-c2c(F)cccc2F)c(-c2ccc(F)c(F)c2)c1[N+](=O)[O-] ... 90
CCOC(=O)COc1nn(-c2ccccc2F)c(-c2ccccc2)c1[N+](=O)[O-] ... 80
O=C(O)COc1nn(-c2ccccc2F)c(-c2ccccc2)c1Br ... 80
COC(=O)[C@@H](C)Oc1nn(-c2ccccc2)c(-c2ccc(F)cc2)c1C#N ... 90
COC(=O)COc1nn(-c2ccccc2)c(-c2ccc(F)cc2)c1Cl ... 90
COC(=O)COc1nn(-c2ccc(Cl)cc2)c(-c2ccc(F)cc2)c1Cl ... 90
COC(=O)COc1nn(-c2ccccc2F)c(-c2ccccc2)c1Cl ... 90
COC(=O)COc1nn(-c2ccccc2)c(-c2cccc(F)c2)c1Cl ... 80
COC(=O)COc1nn(-c2cccc(Cl)c2)c(-c2cccc(F)c2)c1C#N ... 80

Task: Respond only with Post-emergence action against VERPE in % recorded for COC(=O)COc1nn(-c2cccc(F)c2)c(-c2cccc(F)c2)c1C#N
Output: 80

----------
system: STEME; test: Pre-emergence herbicidal action against STEME; type: in vivo, Stellaria media; details: 1280 g/ha, scored visually after about 3 weeks vs untreated controls
The following compounds are listed with their measured Pre-emergence action against STEME in % values.
Report as a plain number; the unit % is understood.

Please review the following examples before continuing.
CCOC(=O)COc1nn(-c2ccc(F)cc2F)c(-c2cccc(F)c2)c1Cl [I-098] ... 100
CCOC(=O)COc1nn(-c2c(F)cccc2F)c(-c2ccc(F)c(F)c2)c1Cl [I-142] ... 100
C=CCNC(=O)COc1nn(-c2ccc(F)cc2)c(-c2cccc(F)c2)c1Cl [III-022] ... 100
O=C(O)COc1nn(-c2cccc(F)c2)c(-c2ccccc2)c1I [I-128] ... 90

Task: Report measured Pre-emergence action against STEME in % on STEME; entry: C=CCNC(=O)COc1nn(-c2ccccc2)c(-c2ccc(F)cc2)c1Br [III-004]
Output: 100

Task: Report measured Pre-emergence action against STEME in % on STEME; entry: COC(=O)[C@H](C)Oc1nn(-c2ccccc2)c(-c2ccc(F)cc2)c1C#N [I-141]
Output: 90

Task: Report measured Pre-emergence action against STEME in % on STEME; entry: O=C(O)COc1nn(-c2ccc(F)cc2)c(-c2cccc(F)c2)c1[N+](=O)[O-] [I-121]
Output: 100

Task: Report measured Pre-emergence action against STEME in % on STEME; entry: CCOC(=O)COc1nn(-c2ccccc2)c(-c2ccccc2)c1Br [I-070]
Output: 90

Task: Report measured Pre-emergence action against STEME in % on STEME; entry: CC#CCNC(=O)COc1nn(-c2ccc(F)cc2)c(-c2cccc(F)c2)c1Br [III-017]
Output: 100

----------
system: STEME; experiment: Post-emergence herbicidal action against STEME; type: in vivo, Stellaria media; details: 1280 g/ha, visual rating about 3 weeks after treatment
Observation type: Post-emergence action against STEME in %
Write the quantity with the unit trailing the number.

Please review the following examples before continuing.
COC(=O)C(C)Oc1nn(-c2c(F)cccc2F)c(-c2ccc(F)c(F)c2)c1Br (stereo not drawn) ... 100%
CCOC(=O)COc1nn(-c2cc(F)c(F)cc2F)c(-c2ccccc2)c1Cl ... 100%
COC(=O)C(C)Oc1nn(-c2ccccc2F)c(-c2ccccc2)c1C#N (stereo not drawn) ... 80%
CCOC(=O)COc1nn(-c2cc(F)c(F)cc2F)c(-c2cccc(F)c2)c1Cl ... 100%
COC(=O)COc1nn(-c2ccccc2)c(-c2cccc(F)c2)c1Cl ... 90%
COC(=O)C(C)Oc1nn(-c2ccccc2)c(-c2ccc(F)cc2)c1Br (stereo not drawn) ... 100%
COC(=O)COc1nn(-c2cccc(F)c2)c(-c2ccc(F)cc2)c1C#N ... 80%
CCOC(=O)COc1nn(-c2ccccc2F)c(-c2ccc(F)c(F)c2)c1[N+](=O)[O-] ... 100%

// switching to the query molecule
Task: Respond only with Post-emergence action against STEME in % recorded for COC(=O)COc1nn(-c2ccc(F)cc2)c(-c2cccc(F)c2)c1I
Output: 90%

----------
Test system: STEME
Experiment: Pre-emergence herbicidal action against STEME
Format: in vivo, Stellaria media
Details: 1280 g/ha, scored visually after about 3 weeks vs untreated controls
From the text: Seeds of mono- and dicotyledonous weed plants are placed in plastic pots in sandy loam soil (doubly sown with one species each of mono- or dicotyledonous weed plants per pot) and covered with soil. […] After about 3 weeks, the effect of the preparations is scored visually in comparison with untreated controls as percentages. […]
The following molecules are listed with their measured Pre-emergence action against STEME in % values.
Report as a plain number; the unit % is understood.

Please review the following examples before continuing.
C=CCNC(=O)COc1nn(-c2ccc(F)cc2)c(-c2cccc(F)c2)c1Br ... 100
C1COCCN1.O=C(O)COc1nn(-c2cccc(F)c2)c(-c2ccccc2)c1I ... 100
COC(=O)C(C)Oc1nn(-c2cccc(F)c2)c(-c2cccc(F)c2)c1C#N (centres unmarked) ... 90

Task: Report measured Pre-emergence action against STEME in % on STEME; entry: COC(=O)COc1nn(-c2ccc(C)cc2)c(-c2cccc(F)c2)c1C#N
Output: 80

Task: Report measured Pre-emergence action against STEME in % on STEME; entry: COC(=O)C(C)Oc1nn(-c2ccccc2)c(-c2ccc(F)cc2)c1Cl (centres unmarked)
Output: 100

Task: Report measured Pre-emergence action against STEME in % on STEME; entry: CCOC(=O)COc1nn(-c2ccc(F)cc2F)c(-c2ccc(F)cc2)c1Br
Output: 100

Task: Report measured Pre-emergence action against STEME in % on STEME; entry: COC(=O)C(C)Oc1nn(-c2ccccc2)c(-c2cccc(F)c2)c1Cl (centres unmarked)
Output: 100

Task: Report measured Pre-emergence action against STEME in % on STEME; entry: CCOC(=O)COc1nn(-c2ccccc2OC)c(-c2ccccc2)c1Br
Output: 100

Task: Report measured Pre-emergence action against STEME in % on STEME; entry: O=C(COc1nn(-c2ccc(F)cc2)c(-c2cccc(F)c2)c1Br)OCc1cccc(F)c1
Output: 100

Task: Report measured Pre-emergence action against STEME in % on STEME; entry: COC(=O)COc1nn(-c2ccccc2)c(-c2cccc(F)c2)c1Cl
Output: 100

Task: Report measured Pre-emergence action against STEME in % on STEME; entry: CCOC(=O)COc1nn(-c2ccc(F)cc2F)c(-c2ccc(F)cc2F)c1Br
Output: 100

Task: Report measured Pre-emergence action against STEME in % on STEME; entry: COC(=O)COc1nn(-c2ccccc2F)c(-c2ccc(F)c(F)c2)c1Br
Output: 100

Task: Report measured Pre-emergence action against STEME in % on STEME; entry: C=CCNC(=O)COc1nn(-c2ccccc2F)c(-c2ccc(F)c(F)c2)c1[N+](=O)[O-]
Output: 90

----------
Tested on: POLCO
Test: Pre-emergence herbicidal action against POLCO
Format: in vivo, Polygonum convolvulus
Details: 320 g/ha, scored visually after about 3 weeks vs untreated controls
Excerpt: Seeds of mono- and dicotyledonous weed plants are placed in plastic pots in sandy loam soil (doubly sown with one species each of mono- or dicotyledonous weed plants per pot) and covered with soil. […] After about 3 weeks, the effect of the preparations is scored visually in comparison with untreated controls as percentages. […]
The following compounds are listed with their measured Pre-emergence action against POLCO in % values.

Please review the following examples before continuing.
COC(=O)COc1nn(-c2ccc(Cl)cc2)c(-c2ccccc2)c1Cl ... 90%
CCOC(=O)COc1nn(-c2ccc(F)cc2F)c(-c2ccccc2)c1Br ... 80%
CC(Oc1nn(-c2ccccc2)c(-c2ccc(F)cc2)c1Cl)C(=O)O (stereo not shown) ... 90%
CCOC(=O)COc1nn(-c2ccccc2F)c(-c2ccccc2)c1[N+](=O)[O-] ... 80%
COC(=O)C(C)Oc1nn(-c2ccccc2)c(-c2ccc(F)cc2)c1C#N (stereo not shown) ... 100%

Task: Report measured Pre-emergence action against POLCO in % on POLCO; entry: C=CCNC(=O)COc1nn(-c2c(F)cccc2F)c(-c2ccc(F)c(F)c2)c1[N+](=O)[O-]
Output: 90%

Task: Report measured Pre-emergence action against POLCO in % on POLCO; entry: COC(=O)[C@@H](C)Oc1nn(-c2cccc(F)c2)c(-c2cccc(F)c2)c1C#N
Output: 100%

The reported numbers originate from patent US20230066946A1.
